Test system: KM12 colon
procedure_summary: NCI tumour cell line growth inhibition, 48 h; in the data active means GI50 below about 0.43 µM; inactive means the rest
Please reply with one of these outcomes: active, inactive

CCC(CC)COC(=O)[C@H](C)N[P@](=O)(OC[C@H]1O[C@@](C#N)(c2ccc3c(N)ncnn23)[C@H](O)[C@@H]1O)Oc1ccccc1 = inactive

IN: Entry Cc1ccc(NS(=O)(=O)c2ccc(-c3cnc(C4CC4)o3)cc2)cc1C : call = ?
OUT: active

IN: Entry CCC(/C=C(C)/C=C/C(=O)c1c(O)c(-c2ccc(O)cc2)c[nH]c1=O)CO (stereo unspecified) : call = ?
OUT: inactive

IN: Entry CC(C)(Oc1ccc(Cl)cc1)C(=O)NC1C2CC3CC1CC(NS(C)(=O)=O)(C3)C2 (stereo unspecified) : call = ?
OUT: inactive

IN: Entry CC[C@@]1(O)C(=O)OCc2c1cc1n(c2=O)Cc2cc3c([N+](=O)[O-])c(OC)ccc3nc2-1 : call = ?
OUT: inactive

IN: Entry CCN(CC)CCCN1C(=O)c2c(c(C)c3c(oc4ccc(O)cc43)c2C)C1=O : call = ?
OUT: inactive
